biological target: SARS-CoV-2 spike protein (S-wt, Wuhan-Hu-1, NCBI Accession Number MN908947.3) on VSV pseudoparticles (SARS-CoV-2, UniProt P0DTC2 14-1273); test: cell-based or functional assay
Attribute measured: IC50 (M), neutralization
Give the number first and the unit second.

Form field IC50 (M), neutralization, entry mAb10920 (antibody, V domains shown) VH: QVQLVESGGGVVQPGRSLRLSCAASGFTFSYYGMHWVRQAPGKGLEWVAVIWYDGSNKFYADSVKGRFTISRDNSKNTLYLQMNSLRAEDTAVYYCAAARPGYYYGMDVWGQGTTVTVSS VL: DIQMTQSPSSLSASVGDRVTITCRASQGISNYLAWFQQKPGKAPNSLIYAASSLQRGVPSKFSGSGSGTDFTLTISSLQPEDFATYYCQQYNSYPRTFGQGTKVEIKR : 2.64e-10 M
